Experiment: yeast display, Sf9 membrane polyspecificity reagent, FACS + sequencing; frameworks hold sequencing errors
ASSAY ENDPOINT: polyreactivity (PSR sort gate)

Record excerpt, results attached:
SEQUENCE CHAIN: QVQLVESGGGLVQAGGSLRLSCAASGRTFIGYAMGWYRQAPGKERELVATISVSGGSTYYADSVKGRFTISRDNAKNTVYLQMNSLKPEVTAVYYCAKAYLRYYDGPYDYWGHGTQVTVSS
polyreactivity (PSR sort gate): low polyreactivity
//
SEQUENCE CHAIN: QVQLVESGGGLVQAGGSLRLSCAASGSTFSHNAMGWYRQAPGKERELVAAIRWNGGSTHYADSVKVRFTISRDNAKNTVYLQMNSLKPEDTAVYYCAKENHYFTQGYGYWGQGTQVTVSS
polyreactivity (PSR sort gate): low polyreactivity
//
SEQUENCE CHAIN: QVQLVESGGGLVQAGGSLRLSCAASGRIFNRYAMGWYRQAPGKERELVASISLSGDSTYYADSVKGRFTISRDNAKNTVYLQMNSLKPEDTAVYYCAVEGLGAAVYAGDRYDYWGQGTQVTVSS
polyreactivity (PSR sort gate): low polyreactivity
//
SEQUENCE CHAIN: QVQLVESGGGLVQAGGSIRLSCAASGSISPQNVMGWYRQAHGKERELVAAITGGGSTNYADSVKGRFTISRDNAKNTVYLQMNSLIPEDTAVYYCAADGRYAYGYNHWGQGTQVTVSS
polyreactivity (PSR sort gate): low polyreactivity
//
SEQUENCE CHAIN: QVQLVESGGGLVQAGGSLRLSCAASGFTFSYYDMGWYRQAPGTERELVAAISWSGGSTYYADSVKGRFTISRDNAKITVYLQMNSLKPEDTAVYYCNTDTDTTSSGYVYWGQGTQVTVSS
polyreactivity (PSR sort gate): low polyreactivity

# input Item under review: QVQLVESGGGLVQAGGSLRLSCAASGRTFGDNAMGWYRQAPGKERELVAAISSGDSTNYADSVKGRFTISRDNAKNTVYLQMNSLKPEDTAVYYCAAEFSHTYVYVDLDYWGQGTQVTVSS . Reported polyreactivity (PSR sort gate)?
# output low polyreactivity

# input Please do the same for QVQLVESGGGLVQAGGSLRLSCAASGRIFPTNAMGWYRQAPGKERELVASITRSGSTYYADSVTGRFTISRDNAKNTVYLQMNSLKPEDTAVYYCAAYAYIFLDWGGYPYYLYEYDYWGQGTQVTVSS as well.
# output low polyreactivity

# input Please do the same for QVQLVESGGGLVQAGRRLRLSCAASGRIFSRNAMGWYRQAPGKERELVAVITKRGGSTYYADSVKGRFTISRDNAKNTVYLQMNSLKPEDSAVYYCNRRPYTGLGRLDYWGQGTQVTVSS as well.
# output high polyreactivity

# input Please do the same for QVQLVESGGGLVEAGGSLRLSCAASGGIFKIYSMGWYIQAPGKERELVAGINWSDTGTYYADSVKGRFTISRDNAKNTVYLQMNSLKPEDTAVYYCAVSGYPVYITYVSYDYDYWGQGTQVNVSS as well.
# output low polyreactivity

# input Please do the same for QVQLVESAGGLVQAGGSLRLSCPASGGIFSWYHMGWYRQEPGKERELVAAISWSGGSTYYADSVKGRFTISRDNAKNTVYLLMNSLKPEDTAVYYCADYTADDYDYWGQGTQVTVSS as well.
# output high polyreactivity

# input Please do the same for QDQLVESGGGLVQAGGSLRLSCAASGFIFGRYAMGWYRQAPGKERELVATISRCGGSTYYADSVKGRFTISRDNAKKTVYLQMNSLKPEDTAVYYCAATYYQLFGTILHGYWGQGTQVTVSS as well.
# output low polyreactivity
